Data provenance: ChEMBL document CHEMBL3785087

- target_under_test: Neuronal acetylcholine receptor subunit alpha-7 (Homo sapiens, UniProt P36544)
- Sequence (P36544 whole entry): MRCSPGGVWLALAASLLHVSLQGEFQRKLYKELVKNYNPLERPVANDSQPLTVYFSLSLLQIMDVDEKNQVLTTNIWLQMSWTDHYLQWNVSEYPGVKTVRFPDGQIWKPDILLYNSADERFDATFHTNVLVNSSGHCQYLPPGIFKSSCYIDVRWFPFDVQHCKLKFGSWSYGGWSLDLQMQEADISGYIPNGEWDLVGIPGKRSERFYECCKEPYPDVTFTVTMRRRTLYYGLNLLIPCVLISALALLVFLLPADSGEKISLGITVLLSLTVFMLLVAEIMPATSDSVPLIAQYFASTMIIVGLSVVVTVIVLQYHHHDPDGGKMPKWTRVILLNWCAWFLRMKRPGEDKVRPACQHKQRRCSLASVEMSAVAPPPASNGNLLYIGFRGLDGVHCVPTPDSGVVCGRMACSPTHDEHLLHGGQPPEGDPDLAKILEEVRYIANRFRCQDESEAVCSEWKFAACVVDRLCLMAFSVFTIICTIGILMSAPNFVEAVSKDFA
- test_name: Agonist activity at human alpha7 nAChR expressed in xenopus oocytes preincubated for 10 mins followed by acetylcholine addition by patch clamp electrophysiological assay
property_label: EC50

Q: Record lookup: for Neuronal acetylcholine receptor subunit alpha-7 (Homo sapiens, UniProt P36544), what EC50 belongs to `O=C(N[C@H]1CN2CCC1CC2)c1cc2ccc(Br)cn2c1` ?
Ans: 9.63 µM

Q: Provide the documented EC50 with Neuronal acetylcholine receptor subunit alpha-7 (Homo sapiens, UniProt P36544) as the system for `O=C(N[C@H]1CN2CCC1CC2)c1cc(C(=O)c2cccc(Cl)c2)n2ccccc12`
Ans: > 20 µM

Q: Quick check: EC50 on Neuronal acetylcholine receptor subunit alpha-7 (Homo sapiens, UniProt P36544), item `O=C(N[C@H]1CN2CCC1CC2)c1cc2ccccn2c1` ?
Ans: 8.38 µM

Q: Tell me reported EC50 for `Cc1ccccc1-c1cccc2cc(C(=O)N[C@H]3CN4CCC3CC4)cn12` , tested with Neuronal acetylcholine receptor subunit alpha-7 (Homo sapiens, UniProt P36544).
Ans: 4.64 µM

Q: For the record `CCOC(=O)c1cc(C(=O)c2ccc(F)cc2)n2ccc(C(=O)N[C@H]3CN4CCC3CC4)cc12` , what value of EC50 is listed for Neuronal acetylcholine receptor subunit alpha-7 (Homo sapiens, UniProt P36544)?
Ans: > 20 µM

Q: Lab note: need EC50 with Neuronal acetylcholine receptor subunit alpha-7 (Homo sapiens, UniProt P36544) for entry `O=C(N[C@H]1CN2CCC1CC2)c1cc2c(Cl)cccn2c1` , please look it up.
Ans: > 20 µM

Q: Tell me reported EC50 for `O=C(N[C@H]1CN2CCC1CC2)c1cc2ccc(-c3ccsc3)cn2c1` , tested with Neuronal acetylcholine receptor subunit alpha-7 (Homo sapiens, UniProt P36544).
Ans: > 20 µM

Q: State its EC50 on Neuronal acetylcholine receptor subunit alpha-7 (Homo sapiens, UniProt P36544): `CCOC(=O)c1cc(C(=O)c2cccc(Cl)c2)n2ccc(C(=O)N[C@H]3CN4CCC3CC4)cc12`
Ans: > 20 µM

Q: What reported EC50 corresponds to `CCOC(=O)c1cc(C(=O)c2ccccc2O)n2ccc(C(=O)N[C@H]3CN4CCC3CC4)cc12` on Neuronal acetylcholine receptor subunit alpha-7 (Homo sapiens, UniProt P36544)?
Ans: > 20 µM

Q: Look up EC50 with Neuronal acetylcholine receptor subunit alpha-7 (Homo sapiens, UniProt P36544) for this molecule: `CCOC(=O)c1cc(C(=O)c2cccc(F)c2)n2ccc(C(=O)N[C@H]3CN4CCC3CC4)cc12`
Ans: > 20 µM

Q: Param readout= EC50; system= Neuronal acetylcholine receptor subunit alpha-7 (Homo sapiens, UniProt P36544); entry= `O=C(N[C@H]1CN2CCC1CC2)c1cnc2ccccn12` ; returns value.
Ans: > 20 µM

Q: Param readout = EC50; param system = Neuronal acetylcholine receptor subunit alpha-7 (Homo sapiens, UniProt P36544); param query = `O=C(N[C@H]1CN2CCC1CC2)c1cc2c(Br)cccn2c1` ; response: value
Ans: 4.75 µM

Q: Can you look up EC50 on Neuronal acetylcholine receptor subunit alpha-7 (Homo sapiens, UniProt P36544) for `CC(C)(C)c1ccc(-c2ccc3cc(C(=O)N[C@H]4CN5CCC4CC5)cn3c2)cc1` ?
Ans: > 20 µM

Q: Request - read-out EC50 | tested on Neuronal acetylcholine receptor subunit alpha-7 (Homo sapiens, UniProt P36544) | molecule `O=C(N[C@H]1CN2CCC1CC2)c1cc2cccc(-c3ccccc3)n2c1`
Ans: 3.98 µM

Q: Please state recorded EC50 (tested on Neuronal acetylcholine receptor subunit alpha-7 (Homo sapiens, UniProt P36544)) of `O=C(N[C@H]1CN2CCC1CC2)c1cc2cc(Cl)ccn2c1`
Ans: 6.92 µM

Q: Observed EC50 on Neuronal acetylcholine receptor subunit alpha-7 (Homo sapiens, UniProt P36544) for `CCOC(=O)c1cc(C(=O)c2ccc(Cl)c(Cl)c2)n2ccc(C(=O)N[C@H]3CN4CCC3CC4)cc12` , please.
Ans: > 20 µM

Q: Recall the recorded EC50 for `O=C(N[C@H]1CN2CCC1CC2)c1cc2cc(-c3ccccc3)ccn2c1` with Neuronal acetylcholine receptor subunit alpha-7 (Homo sapiens, UniProt P36544) and state it.
Ans: > 20 µM
